- Experiment: NCI Yeast Anticancer Drug Screen. Data for the mlh1 rad18 strain (AID 175)
- Condition parameters: S. cerevisiae mlh1 rad18 strain growth inhibition; at 50.0 µM; stronger effect = higher value
This is part of a sample that, as a whole, favours compounds with a hit. Of some 79,000 tested, about 15% had one in any assay.
Metric: growth inhibition (%)
Answers are plain numbers, in %.

Record excerpt, results attached:
>>> numeric_value("O=[N+]([O-])c1ccc(NC(c2ccccc2)c2ccc3cccnc3c2O)cc1 (stereo not given)")
-10.3
>>> numeric_value("C=C1CCC/C(=N\\Nc2ccc([N+](=O)[O-])cc2[N+](=O)[O-])C12CCCC2")
-1.35
>>> numeric_value("C[Si](C)(OCCS(=O)(=O)O)C1(Cc2cccc3ccccc23)S(=O)(=O)OCCOS1(=O)=O")
17.2
>>> numeric_value("c1ccc(N=C(C(=Nc2ccccc2)c2ccccc2)c2ccccc2)cc1")
-9.05

For each of the items listed, what is its growth inhibition?
1. COc1ccc(-n2[nH]c3c(cnc4ccccc43)c2=O)cc1
2. CC(=O)/C(N=Nc1ccc(S(=O)(=O)c2ccc(N=N/C(C(C)=O)=C(/C)O)cc2)cc1)=C(\C)O
3. COc1ccc(N=C(C)c2c(O)n(-c3ccccc3)[nH]c2=O)cc1
4. COc1ncc(/C=C2\OC(=O)c3ccccc32)c(OC)n1
5. CC(C)=CC1C(C(=O)O)C1(C)C (stereo not given)

2
-14.9
98.5
16.9
10.2

Given `O=S(=O)(Oc1ccc(Cl)cc1)c1ccc(Br)cc1` , state its recorded growth inhibition. 25.3

---

- Experiment: NCI Yeast Anticancer Drug Screen. Data for the mlh1 rad18 strain (AID 175)
- Condition parameters: S. cerevisiae mlh1 rad18 strain growth inhibition; at 50.0 µM
Compounds without any hit were thinned out: in the full panel of roughly 79,000, 15% have a hit. The source made the active and inactive calls. Cut-off read from the data, not from the text of the source: active = growth inhibition above about 70%; inactive = the rest.
Classes to choose from: true = active, false = inactive

Use the examples below as a reference point.
>>> label("COc1ccc(CCNC(=O)Cc2ccc(Cl)cc2)cc1OC")
"false"
>>> label("O=C(c1ccccc1)C1(Cl)CCCCC1")
"false"
>>> label("COc1ccc(Cc2c[nH]c3cc(OC)c(OC)cc23)cc1OC")
"false"
>>> label("COc1cc(C)n2nnnc2n1")
"false"
>>> label("Oc1cccc(N=Cc2ccccc2O)c1")
"false"
>>> label("CN(C)CCCNC(=O)CCNC(=O)c1cc(NC(=O)c2cc(NC(=O)c3cc(NC(=O)c4nc(NC(=O)CCCNC(=O)c5cc(NC(=O)c6cc(NC(=O)c7cc(NC(=O)c8nccn8C)cn7C)cn6C)cn5C)cn4C)cn3C)cn2C)cn1C")
"false"
>>> label("c1ccc2c(c1)ccc1c3ccccc3ncc21")
"false"
>>> label("NC(Cc1ccsc1)C(=O)O (configuration not stated)")
"false"

// switching to the query molecule
Outcome? `N=c1sc2ccccc2n1CC(=O)O` false

---

- Experiment: NCI Yeast Anticancer Drug Screen. Data for the bub3 strain (AID 167)
- Condition parameters: S. cerevisiae bub3 mutant strain, at 50.0 µM, stronger effect = higher value
The panel holds about 79,000 compounds, 15% with a hit somewhere; the sample as a whole holds those more often.
Metric: growth inhibition (%)
Answers are plain numbers, in %.

>>> numeric_value("c1ccc2c3c(ccc2c1)Oc1ccc2ccccc2c1C3")
-7.35
>>> numeric_value("CN1CC(C(N)=O)=CC(C(N)=O)C1 (stereo not drawn)")
9.25
>>> numeric_value("Cc1cc(Cl)ccc1OC(=O)NC1CCCCC1")
30.4
>>> numeric_value("CCCCCCCCCCO")
3.2
>>> numeric_value("O=C1C=CC(n2cc(F)c(=O)[nH]c2=O)O1 (stereo not drawn)")
9.3
>>> numeric_value("CN=C1c2ccccc2C(=O)c2c1c(O)n(-c1ccccc1)c2O")
29.4
>>> numeric_value("CC(N)CCC(=O)O (stereo not drawn)")
-32.1

Let's switch to this molecule now.
Given `Clc1nc(N2CCOCC2)nc(N2CCOCC2)n1` , state its recorded growth inhibition. 7.7
